The measured values listed here are drawn from paper PMC7958448.

target: SARS-CoV-2 main protease (Mpro) (Severe acute respiratory syndrome coronavirus 2)
measured_metric: pIC50
// pIC50 here means minus log10 of the molar concentration (mol/L)

Data request, read-out pIC50, for Cc1cccc(C)c1OCC(=O)N[C@@H](Cc1ccccc1)[C@@H](O)C[C@H](Cc1ccccc1)NC(=O)[C@H](C(C)C)N1CCCNC1=O
3.31

* * *

test system: SARS-CoV-2 in Vero E6 cells; experiment: microbe, parasite or virus in culture; format: cell-based; details: Severe acute respiratory syndrome coronavirus 2, Vero C1008, 72 h; read-out: EC50 in inhibiting SARS-CoV-2
measured_metric: EC50 (µM)
Kindly provide the numeric value in µM only, without the unit symbol.

Quick one: EC50 for CC(C)COCC(CN(Cc1ccccc1)c1ccccc1)N1CCCC1 (stereo not shown) ?
0.86
